Target: T1, Insulin receptor prepared according to Bass et al., 1996 (human, UniProt P06213 28-956, limits assumed)
T1 construct: extracellular domain; also called IR; soluble IR (Bass construct); not shown: immunoglobulin constant domains (Fc or lambda) of the Bass construct
Assay: phage ELISA: IR ratio over background divided by IGF-1R ratio over background
measurement-label: Comparison IR/IGF-1R (ratio)
// units = ratio; emit number, no label

INPUT: Which Comparison IR/IGF-1R is listed for DYKDRCGDEEGWQENRRDDPFYHKLSELFGGCAAAGAP (not shown: rest of the phage display fusion (remainder of E-Tag, phage coat protein)) [B6Hα-3-E5-IR] ?
OUTPUT: 0.3

INPUT: Name the recorded Comparison IR/IGF-1R for DYKDCSMAAVAEAGDDDDPFYHKLSELCQGSAAAGAP (not shown: rest of the phage display fusion (remainder of E-Tag, phage coat protein)) [B6Hα-3-F1-IR] .
OUTPUT: 0.5

INPUT: What Comparison IR/IGF-1R value was documented for this binder, DYKDLSCLAYSRHGIWRPSTDLGLGRSVGEGSVSTRWRGYDWFEAAAGAP (not shown: rest of the phage display fusion (remainder of E-Tag, phage coat protein)) [40F-4-D1-IGFR] ?
OUTPUT: 0.1

INPUT: Value lookup for Comparison IR/IGF-1R; key = DYKDGLDHSDAVGVHLGFAWPAQARGRWEAGGLEDTWAGYDWLAAAGAP (not shown: rest of the phage display fusion (remainder of E-Tag, phage coat protein)) [40F-4-B1-IGFR]
OUTPUT: 0.1

INPUT: Any idea what its Comparison IR/IGF-1R is? The binder is DYKDMNVFVSFYDAIDQLVCQRIGCAAAGAP (not shown: rest of the phage display fusion (remainder of E-Tag, phage coat protein)) [20E2A-4-G11-IGFR]
OUTPUT: 0.4
